TGT: human FXR (Homo sapiens)
Construct: expressed in transfected cells; host or cells: HEK293 cells stably carrying a 5xGal4-response-element firefly luciferase reporter, transiently transfected with pcDNA3.1-Gal4-FXR
Sequence (Q96RI1 262-486 limits assumed): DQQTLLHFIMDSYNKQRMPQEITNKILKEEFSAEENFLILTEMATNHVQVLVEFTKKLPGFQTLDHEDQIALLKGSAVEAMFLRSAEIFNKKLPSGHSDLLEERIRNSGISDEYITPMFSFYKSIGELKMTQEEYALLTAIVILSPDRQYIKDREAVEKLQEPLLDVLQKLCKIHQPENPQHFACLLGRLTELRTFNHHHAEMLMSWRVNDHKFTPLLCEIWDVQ
PROTOCOL DETAILS: transient human FXR/Gal4-luciferase reporter assay
Format: cell-based
MEASUREMENT CONDITIONS: Gal4-hFXR fusion construct, luciferase reporter HEK293 cells; response relative to 8 μM GW-4064; unit inferred
pEC50: −log10 of the molar value.
READOUT TYPE: pEC50

Recorded results for 5 compounds are shown here.
CC(C)Oc1cc(C(=O)O)nc2ccc(N3CC4(CC(/C=C/c5c(-c6c(Cl)cncc6Cl)noc5C5CC5)C4)C3)cc12 [Example 11] : 7.10
O=C(O)c1ncc(OCC2CC3(CC(/C=C/c4c(-c5ccccc5C(F)(F)F)noc4C4CC4)C3)C2)cc1C(F)(F)F (stereo not shown) [Example 56] : 7.02
Cc1c(OCC2CC3(CC(/C=C/c4c(-c5c(Cl)cncc5Cl)noc4C4CC4)C3)C2)nn(C(C)C)c1C(=O)O (stereo not shown) [Example 59] : 7.07
COc1cc(C(=O)O)nc2ccc(N3CC4(CC(/C=C/c5c(-c6ccccc6C(F)(F)F)noc5C5CC5)C4)C3)cc12 [Example 16] : 6.98
O=C(O)c1cc(C(F)(F)F)c2cc(N3CC4(CC(/C=C/c5c(-c6ccccc6C(F)(F)F)noc5C5CC5)C4)C3)ccc2n1 [Example 8] : 6.86

(I) NC(=O)c1ncc(OCC2CC3(CC(/C=C/c4c(-c5c(Cl)cncc5Cl)noc4C4CC4)C3)C2)cc1OC1CCC1 (stereo not shown) [Example 65]
(II) O=C(O)c1cc(OC2CCC2)c2cc(N3CC4(CC(/C=C/c5c(-c6c(Cl)cncc6Cl)noc5C5CC5)C4)C3)ccc2n1 [Example 17]
// select label with min value of measured pEC50 from [ I , II ] I would appreciate it if you answered with the label of your choice.
I
(I: 6.82, II: 7.07)
